Reference source for all entries: patent US20260263413A1

assay_overview: Pharmacokinetic (PK) data from oral administration of DHM in enteric capsules, with or without sodium caprate
Assay type: in vivo, Sprague-Dawley rats
particulars: Sprague-Dawley, rat, blood, po, DHM Cmax, 75.5±2.0 mg/kg crystalline DHM, enteric capsules, sodium caprate approx. 75.5 mg/kg (1:1), FIG. 3C
measured_attribute: Cmax
Note to self: number, then unit, no commentary.

Briefly, Cmax measured for O=C1c2c(O)cc(O)cc2O[C@H](c2cc(O)c(O)c(O)c2)[C@H]1O [DHM, dihydromyricetin] : 62.3 ng/mL

----------
assay_overview: Pharmacokinetic (PK) data from intravenous (IV) administration of DHM, blood samples analysed by LC-MS/MS
Type: in vivo, Sprague-Dawley rats
particulars: Sprague-Dawley, rat, 1 mg/kg
measured_attribute: AUC (ng·h/mL)
Field format: number, assumed ng·h/mL, no unit text.

Briefly, AUC measured for O=C1c2c(O)cc(O)cc2O[C@H](c2cc(O)c(O)c(O)c2)[C@H]1O [DHM, dihydromyricetin] : 11.6

----------
assay_overview: Pharmacokinetic (PK) data from oral administration of DHM in enteric capsules, with or without sodium caprate
Type: in vivo, Sprague-Dawley rats
particulars: Sprague-Dawley, rat, blood, po, DHM AUC, 70.6±2.7 mg/kg crystalline DHM, enteric capsules, sodium caprate approx. 141.2 mg/kg (2:1), FIG. 3D
measured_attribute: AUC (ng·h/mL)
Field format: number, assumed ng·h/mL, no unit text.

Briefly, AUC measured for O=C1c2c(O)cc(O)cc2O[C@H](c2cc(O)c(O)c(O)c2)[C@H]1O [DHM, dihydromyricetin] : 431

----------
assay_overview: Pharmacokinetic (PK) data from oral administration of DHM in enteric capsules, with or without sodium caprate
Assay type: in vivo, Sprague-Dawley rats
particulars: Sprague-Dawley, rat, blood, po, DHM AUC, 75.5±2.0 mg/kg crystalline DHM, enteric capsules, sodium caprate approx. 75.5 mg/kg (1:1), FIG. 3C
measured_attribute: AUC
Note to self: number, then unit, no commentary.

Briefly, AUC measured for O=C1c2c(O)cc(O)cc2O[C@H](c2cc(O)c(O)c(O)c2)[C@H]1O [DHM, dihydromyricetin] : 284 ng·h/mL

----------
assay_overview: in vivo
particulars: Sprague-Dawley, rat, po, 1.3 mg/kg, DHM Cmax
measured_attribute: Cmax (ng/mL)
Field format: number, assumed ng/mL, no unit text.

Briefly, Cmax measured for O=C1c2c(O)cc(O)cc2O[C@H](c2cc(O)c(O)c(O)c2)[C@H]1O [DHM, dihydromyricetin] : 46.2

----------
assay_overview: Pharmacokinetic (PK) data from oral administration of DHM in enteric capsules, with or without sodium caprate
Assay type: in vivo, Sprague-Dawley rats
particulars: Sprague-Dawley, rat, blood, po, 70.6±2.7 mg/kg crystalline DHM, enteric capsules, sodium caprate approx. 141.2 mg/kg (2:1), FIG. 3D
measured_attribute: Tmax

Briefly, Tmax measured for O=C1c2c(O)cc(O)cc2O[C@H](c2cc(O)c(O)c(O)c2)[C@H]1O [DHM, dihydromyricetin] : 4 h

----------
assay_overview: Pharmacokinetic (PK) data from oral administration of DHM in enteric capsules, with or without sodium caprate
Format: in vivo, Sprague-Dawley rats
particulars: Sprague-Dawley, rat, blood, 1.1 mg/kg
measured_attribute: bioavailability (%)
Field format: number, assumed %, no unit text.

Briefly, bioavailability measured for O=C1c2c(O)cc(O)cc2O[C@H](c2cc(O)c(O)c(O)c2)[C@H]1O [DHM, dihydromyricetin] : 19.5

----------
assay_overview: Pharmacokinetic (PK) data from oral administration of DHM in enteric capsules, with or without sodium caprate
Format: in vivo, Sprague-Dawley rats
particulars: Sprague-Dawley, rat, blood, po, DHM Cmax, 70.6±2.7 mg/kg crystalline DHM, enteric capsules, sodium caprate approx. 141.2 mg/kg (2:1), FIG. 3D
measured_attribute: Cmax
Note to self: number, then unit, no commentary.

Briefly, Cmax measured for O=C1c2c(O)cc(O)cc2O[C@H](c2cc(O)c(O)c(O)c2)[C@H]1O [DHM, dihydromyricetin] : 70.2 ng/mL

----------
assay_overview: Pharmacokinetic (PK) data from oral administration of DHM in enteric capsules, with or without sodium caprate
Type: in vivo, Sprague-Dawley rats
particulars: Sprague-Dawley, rat, blood, po, 1.1 mg/kg, DHM AUC, 73.1±1.1 mg/kg crystalline DHM, enteric capsules (Eudragit L100-55 coated), Na caprate:DHM 0:1, FIG. 3A
measured_attribute: AUC (ng·h/mL)
Field format: number, assumed ng·h/mL, no unit text.

Briefly, AUC measured for O=C1c2c(O)cc(O)cc2O[C@H](c2cc(O)c(O)c(O)c2)[C@H]1O [DHM, dihydromyricetin] : 167

----------
assay_overview: Pharmacokinetic (PK) data from oral administration of DHM in enteric capsules, with or without sodium caprate
Format: in vivo, Sprague-Dawley rats
particulars: Sprague-Dawley, rat, blood, po, 1.1 mg/kg, 73.1±1.1 mg/kg crystalline DHM, enteric capsules (Eudragit L100-55 coated), Na caprate:DHM 0:1, FIG. 3A
measured_attribute: Tmax (h)
Field format: number, assumed h, no unit text.

Briefly, Tmax measured for O=C1c2c(O)cc(O)cc2O[C@H](c2cc(O)c(O)c(O)c2)[C@H]1O [DHM, dihydromyricetin] : 5.4

----------
assay_overview: Pharmacokinetic (PK) data from oral administration of DHM in enteric capsules, with or without sodium caprate
Type: in vivo, Sprague-Dawley rats
particulars: Sprague-Dawley, rat, blood, po, 75.5±2.0 mg/kg crystalline DHM, enteric capsules, sodium caprate approx. 75.5 mg/kg (1:1), FIG. 3C
measured_attribute: Tmax (h)
Field format: number, assumed h, no unit text.

Briefly, Tmax measured for O=C1c2c(O)cc(O)cc2O[C@H](c2cc(O)c(O)c(O)c2)[C@H]1O [DHM, dihydromyricetin] : 4

----------
assay_overview: Pharmacokinetic (PK) data from oral administration of DHM in enteric capsules, with or without sodium caprate
Assay type: in vivo, Sprague-Dawley rats
particulars: Sprague-Dawley, rat, blood, po, 1.1 mg/kg, DHM Cmax, 73.1±1.1 mg/kg crystalline DHM, enteric capsules (Eudragit L100-55 coated), Na caprate:DHM 0:1, FIG. 3A
measured_attribute: Cmax

Briefly, Cmax measured for O=C1c2c(O)cc(O)cc2O[C@H](c2cc(O)c(O)c(O)c2)[C@H]1O [DHM, dihydromyricetin] : 27.9 ng/mL
